Tested on: Chromobacterium violaceum
Test: Inhibition of quorum sensing system in Chromobacterium violaceum ATCC 31532 assessed as reduction in violacein production at 400 uM relative to control
Activity calls are given as the source filed them. No cut-off for these calls is given here.
readout: inhibition

Sample answers from the record:
# compound, inhibition
rows = [
    ("CC(C)(C)OC(=O)NCCNC(=O)/C=C/C(=O)NCCCCNc1ccnc2cc(Cl)ccc12", "23%"),
    ("COc1cc(NC(C)CCCNC(=O)/C=C/C(=O)Nc2cccc(Cl)c2)c2ncccc2c1 (stereo not given)", "inactive"),
    ("NC1CCN(C(=O)/C=C/C(=O)NCCCCNc2ccnc3cc(Cl)ccc23)CC1", "47.2%"),
    ("O=C(/C=C/C(=O)Nc1cccc(C(F)(F)F)c1)NCCCCNc1ccnc2cc(Cl)ccc12", "inactive"),
]

Now consider a different compound.
Consider the compound "O=C(/C=C/C(=O)Nc1cccc(Cl)c1)NCCCCNc1ccnc2cc(Cl)ccc12" and give its measured inhibition.
75.3%

====

Measured Activity of individual entries
Test system: Chromobacterium violaceum
Test: Inhibition of quorum sensing in violacein-negative Chromobacterium violaceum CV026 mini-Tn5 mutant assessed as quorum quenching by measuring violacein production at 40 uM in presence of C6-HSL relative to control
Set-up: scale not given: the % may be the effect or the level left
Expressed in %, but write only the number.

Field: example entries. Status: answers known.
# smiles-text, Activity / %
measured = [
    ("O=C(/C=C/C(=O)NC1CCNCC1)NCCCCNc1ccnc2cc(Cl)ccc12", 42.8),
    ("NCCNC(=O)/C=C/C(=O)NCCCCNc1ccnc2cc(Cl)ccc12", 52.5),
    ("NC1CCN(C(=O)/C=C/C(=O)NCCCCNc2ccnc3cc(Cl)ccc23)CC1", 39.9),
]

// moving on: another record for Activity
Requested field: Activity. Item: "CC[C@H]1OC(=O)[C@H](C)[C@@H](O[C@H]2C[C@@](C)(OC)[C@@H](O)[C@H](C)O2)[C@H](C)[C@@H](O[C@@H]2O[C@H](C)C[C@H](N(C)C)[C@H]2O)[C@](C)(O)C[C@@H](C)CN(C)[C@H](C)[C@@H](O)[C@]1(C)O"
86.3

====

System: Chromobacterium violaceum
Assay: Inhibition of quorum sensing system in Chromobacterium violaceum ATCC 31532 assessed as reduction in violacein production at 400 uM relative to control
Active and inactive are the calls of the source. No cut-off for these calls is given here.
readout: inhibition

# compound, measured-result
records = [
    ("O=C(/C=C/C(=O)Nc1ccc(F)cc1)NCCCCNc1cc(C(F)(F)F)nc2c(C(F)(F)F)cccc12", "29.1%"),
    ("O=C(/C=C/C(=O)Nc1cccc(F)c1)NCCCCNc1cc(C(F)(F)F)nc2c(C(F)(F)F)cccc12", "16.9%"),
    ("COc1cc(NC(C)CCCNC(=O)/C=C/C(=O)Nc2cccc(C(F)(F)F)c2)c2ncccc2c1 (stereo unspecified)", "inactive"),
    ("O=C(/C=C/C(=O)Nc1cccc(F)c1)NCCCCNc1ccnc2cc(Cl)ccc12", "79.4%"),
    ("CCN(CC)CCCC(C)Nc1ccnc2cc(Cl)ccc12 (stereo unspecified)", "13.2%"),
]

Identify the measured inhibition of COc1cc(NC(C)CCCN)c2ncccc2c1 (stereo unspecified) for Chromobacterium violaceum.
inactive

So what inhibition did "O=C(/C=C/C(=O)Nc1ccc(Cl)cc1)NCCCCNc1cc(C(F)(F)F)nc2c(C(F)(F)F)cccc12" get with Chromobacterium violaceum?
29.9%

// fetch Chromobacterium violaceum inhibition for "O=C(/C=C/C(=O)Nc1ccc(C(F)(F)F)cc1)NCCCCNc1ccnc2cc(Cl)ccc12"
85.7%

For the record COc1cc(NC(C)CCCNC(=O)/C=C/C(=O)Nc2ccc(Cl)cc2)c2ncccc2c1 (stereo unspecified) , what value of inhibition is listed for Chromobacterium violaceum?
inactive

// lookup inhibition | system=Chromobacterium violaceum | key= "Nc1ccc(NC(=O)/C=C/C(=O)NCCCCNc2ccnc3cc(Cl)ccc23)cc1"
4.7%

Field: inhibition (Chromobacterium violaceum). Entry: "O=C(/C=C/C(=O)Nc1cccc(C(F)(F)F)c1)NCCCCNc1cc(C(F)(F)F)nc2c(C(F)(F)F)cccc12"
22.3%

====

Test system: Chromobacterium violaceum
Assay: Inhibition of quorum sensing in Chromobacterium violaceum ATCC 31532 assessed as reduction in violacein production at 400 uM relative to control
# inhibition listing for each entry below
The reply should be a number in %, with the unit left off.

# compound, assayed-system, inhibition [%]
rows = [
    ("O=C(/C=C/C(=O)Nc1cccc(Cl)c1)NCCCCNc1ccnc2cc(Cl)ccc12", "Chromobacterium violaceum", 75),
    ("O=C(/C=C/C(=O)Nc1cccc(F)c1)NCCCCNc1ccnc2cc(Cl)ccc12", "Chromobacterium violaceum", 75),
    ("CC[C@H]1OC(=O)[C@H](C)[C@@H](O[C@H]2C[C@@](C)(OC)[C@@H](O)[C@H](C)O2)[C@H](C)[C@@H](O[C@@H]2O[C@H](C)C[C@H](N(C)C)[C@H]2O)[C@](C)(O)C[C@@H](C)CN(C)[C@H](C)[C@@H](O)[C@]1(C)O [AZITHROMYCIN]", "Chromobacterium violaceum", 90.6),
]

Next item in the queue.
Requested read-out: inhibition. Entry: "O=C(/C=C/C(=O)Nc1ccc(F)cc1)NCCCCNc1ccnc2cc(Cl)ccc12"
75

====

Tested on: Chromobacterium violaceum
Experiment: Inhibition of quorum sensing in violacein-negative Chromobacterium violaceum CV026 mini-Tn5 mutant assessed as quorum quenching by measuring violacein production at 400 uM in presence of C6-HSL relative to control
Set-up: scale not given: the % may be the effect or the level left
The source made the active and inactive calls. No cut-off for these calls is given here.
readout: Activity

# compound, assayed-system, Activity
records = [
    ("O=c1c(O)c(-c2ccc(O)c(O)c2)oc2cc(O)cc(O)c12 [QUERCETIN]", "Chromobacterium violaceum", "66.8%"),
    ("O=C(/C=C/C(=O)Nc1cccc(Cl)c1)NCCCCNc1ccnc2cc(Cl)ccc12", "Chromobacterium violaceum", "inactive"),
    ("NCCNC(=O)/C=C/C(=O)NCCCCNc1ccnc2cc(Cl)ccc12", "Chromobacterium violaceum", "53.3%"),
    ("O=C(/C=C/C(=O)NC1CCNCC1)NCCCCNc1ccnc2cc(Cl)ccc12", "Chromobacterium violaceum", "61.6%"),
    ("O=C(/C=C/C(=O)Nc1ccc(C(F)(F)F)cc1)NCCCCNc1ccnc2cc(Cl)ccc12", "Chromobacterium violaceum", "inactive"),
]

Lab request: please report Activity under test system Chromobacterium violaceum for "O=C(/C=C/C(=O)Nc1ccc(F)cc1)NCCCCNc1ccnc2cc(Cl)ccc12"
inactive

Field: Activity (Chromobacterium violaceum). Entry: "O=C(/C=C/C(=O)Nc1cccc(F)c1)NCCCCNc1ccnc2cc(Cl)ccc12"
inactive

// lookup Activity | system=Chromobacterium violaceum | key= "O=C(/C=C/C(=O)Nc1ccc(Cl)cc1)NCCCCNc1ccnc2cc(Cl)ccc12"
inactive

Param readout= Activity; system= Chromobacterium violaceum; entry= CC[C@H]1OC(=O)[C@H](C)[C@@H](O[C@H]2C[C@@](C)(OC)[C@@H](O)[C@H](C)O2)[C@H](C)[C@@H](O[C@@H]2O[C@H](C)C[C@H](N(C)C)[C@H]2O)[C@](C)(O)C[C@@H](C)CN(C)[C@H](C)[C@@H](O)[C@]1(C)O [AZITHROMYCIN] ; returns value.
86.3%

Field: Activity (Chromobacterium violaceum). Entry: "NC1CCN(C(=O)/C=C/C(=O)NCCCCNc2ccnc3cc(Cl)ccc23)CC1"
62.6%

Given the entry COc1cc(NC(C)CCCN)c2ncccc2c1 (stereo unspecified) , what Activity was observed with Chromobacterium violaceum?
inactive

====

Tested on: Chromobacterium violaceum
Experiment: Inhibition of quorum sensing system in Chromobacterium violaceum ATCC 31532 assessed as reduction in violacein production at 400 uM relative to control
Active and inactive are the calls of the source. The rule behind the calls is not given here.
readout: inhibition

Example entries begin here.
# molecule, readout, measured-result
measured = [
    ("COc1cc(NC(C)CCCNC(=O)/C=C/C(=O)Nc2cccc(F)c2)c2ncccc2c1 (stereo not given)", "inhibition", "inactive"),
    ("NCCNC(=O)/C=C/C(=O)NCCCCNc1ccnc2cc(Cl)ccc12", "inhibition", "46.3%"),
    ("O=C(/C=C/C(=O)Nc1cccc(Cl)c1)NCCCCNc1cc(C(F)(F)F)nc2c(C(F)(F)F)cccc12", "inhibition", "22.3%"),
    ("O=c1c(O)c(-c2ccc(O)c(O)c2)oc2cc(O)cc(O)c12", "inhibition", "55.8%"),
]

Now let's try a different one.
Param item = "O=C(/C=C/C(=O)Nc1ccc(C(F)(F)F)cc1)NCCCCNc1cc(C(F)(F)F)nc2c(C(F)(F)F)cccc12" ; retrieve measured inhibition.
inactive

====

Test system: Chromobacterium violaceum
Assay: Inhibition of quorum sensing system in Chromobacterium violaceum ATCC 31532 assessed as reduction in violacein production at 400 uM relative to control
Active and inactive are the calls of the source. The calls are words filed in the database; no cut-off is given here.
readout: inhibition

Some entries whose results are on file:
# compound, inhibition
measured = [
    ("O=C(/C=C/C(=O)Nc1ccc(Cl)cc1)NCCCCNc1ccnc2cc(Cl)ccc12", "85%"),
    ("COc1cc(NC(C)CCCNC(=O)/C=C/C(=O)Nc2ccc(C(F)(F)F)cc2)c2ncccc2c1 (centres undefined)", "inactive"),
    ("CC(C)(C)OC(=O)N1CCC(NC(=O)/C=C/C(=O)NCCCCNc2ccnc3cc(Cl)ccc23)CC1", "inactive"),
    ("COc1cc(NC(C)CCCNC(=O)/C=C/C(=O)Nc2ccc(F)cc2)c2ncccc2c1 (centres undefined)", "inactive"),
    ("O=C(/C=C/C(=O)NC1CCNCC1)NCCCCNc1ccnc2cc(Cl)ccc12", "45.9%"),
]

Entry "O=C(/C=C/C(=O)Nc1ccc(F)cc1)NCCCCNc1ccnc2cc(Cl)ccc12" , system Chromobacterium violaceum: what inhibition was measured?
87.9%

Param readout = inhibition; param system = Chromobacterium violaceum; param query = "CC(C)(C)OC(=O)Nc1ccc(NC(=O)/C=C/C(=O)NCCCCNc2ccnc3cc(Cl)ccc23)cc1" ; response: value
inactive

Hello, I am looking for reported inhibition with Chromobacterium violaceum for "CC[C@H]1OC(=O)[C@H](C)[C@@H](O[C@H]2C[C@@](C)(OC)[C@@H](O)[C@H](C)O2)[C@H](C)[C@@H](O[C@@H]2O[C@H](C)C[C@H](N(C)C)[C@H]2O)[C@](C)(O)C[C@@H](C)CN(C)[C@H](C)[C@@H](O)[C@]1(C)O" . Could you help?
90.6%

Form: Entry = "CC(C)(C)OC(=O)NC1CCN(C(=O)/C=C/C(=O)NCCCCNc2ccnc3cc(Cl)ccc23)CC1" | System = Chromobacterium violaceum | inhibition = ____
9.1%
